Numbers sourced from patent US20140155376A1.

Target: JAK3 (recombinant human kinase domain; h-jak3(810-1124)) (Homo sapiens, UniProt P52333)
Construct: h-jak3(810- 1124)-sf9-c; made in house; host or cells: Sf9 insect cells
Sequence (P52333 810-1124): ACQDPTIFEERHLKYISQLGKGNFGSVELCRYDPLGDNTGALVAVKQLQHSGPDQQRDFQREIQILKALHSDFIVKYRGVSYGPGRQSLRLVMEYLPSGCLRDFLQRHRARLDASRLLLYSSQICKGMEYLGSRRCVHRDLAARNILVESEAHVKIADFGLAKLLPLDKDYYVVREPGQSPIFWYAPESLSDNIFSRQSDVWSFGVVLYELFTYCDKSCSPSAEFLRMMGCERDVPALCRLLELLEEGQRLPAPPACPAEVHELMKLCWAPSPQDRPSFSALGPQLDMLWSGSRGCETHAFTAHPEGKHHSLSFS
Assay: Determination of IC50 of Janus Kinase (JAK) inhibition: JAK3, radioactive end-point assay with 33P-ATP
Type: biochemical
Settings: JAK3 kinase domain; ATP 1.5 uM, peptide 50 uM, 20 minutes, room temperature, 10% DMSO; read-out: Ic50 h-jak3(810-1124)-sf9-c:no additive
pIC50: −log10 of the molar value.
READOUT_LABEL: pIC50

COMPOUND | ASSAY_VALUE
CC(C)NC(=O)c1c[nH]c2ncc(Oc3ccccc3Cc3ccccc3)nc12 [Example I-237] | 5.27

(a) Cc1cccc(Oc2cnc3[nH]cc(C(=O)NC(C)C)c3n2)n1 [Example I-278]
(b) C[C@H](NC(=O)c1c[nH]c2ncc(-c3ccc(C(=O)N4CCC4)s3)nc12)C(C)(C)C [Example I-180]
(c) COc1ccc(OC)c(CNC(=O)c2ccc(-c3cnc4[nH]cc(C(=O)N[C@@H](C)C(C)(C)C)c4n3)s2)c1 [Example I-204]
(d) CC(NC(=O)c1c[nH]c2ncc(C3CC3)nc12)c1ccccn1 (centres unmarked) [Example I-70]
input: Hey, quick one: sort these by pIC50, largest value first please. To answer, write out the labels according to the requested order.
output: b, c, d, a
(b: 9.49, c: 9.25, d: 7.06, a: 6.31)

(P) CC(C)(C)[C@H](CC#N)NC(=O)c1c[nH]c2ncc(C3CC3)nc12 [Example I-77]
(Q) C[C@H](NC(=O)c1c[nH]c2ncc(-c3ccc(C(=O)NCc4ccccn4)s3)nc12)C(C)(C)C [Example I-166]
(R) CONC(=O)c1ccc(-c2cnc3[nH]cc(C(=O)N[C@@H](C)C(C)(C)C)c3n2)s1 [Example I-197]
input: rank_up(items): orders items by reported pIC50 in ascending numerical order. In plain terms: list the labels in the order you were asked to.
output: P, R, Q
(P: 7.86, R: 9.49, Q: 9.96)

---

Molecular target: JAK3 (recombinant human kinase domain; h-jak3(810-1124)) (Homo sapiens)
Construct: h-jak3(810- 1124)-sf9-c; made in house; host or cells: Sf9 insect cells
Assay: Determination of IC50 of Janus Kinase (JAK) inhibition: JAK3, radioactive end-point assay with 33P-ATP
Type: biochemical
Conditions: JAK3 kinase domain; ATP 1.5 uM, peptide 50 uM, 20 minutes, room temperature, 10% DMSO; read-out: Ic50 h-jak3(810-1124)-sf9-c:no additive
READOUT_LABEL: IC50 (nM)

COMPOUND_SMILES | ASSAYED_SYSTEM | UNIT_ABBREVIATION | IC50
C[C@H](CS(C)(=O)=O)NC(=O)c1ccc(-c2cnc3[nH]cc(C(=O)N[C@@H](C)C(C)(C)C)c3n2)s1 | JAK3 (recombinant human kinase domain; h-jak3(810-1124)) (Homo sapiens) | nM | 0.22

(I) C[C@H](NC(=O)c1c[nH]c2ncc(-c3ccc(C(=O)NCC4CCCC4)s3)nc12)C(C)(C)C
(II) CC(C)(CO)CNC(=O)c1c[nH]c2ncc(Nc3ccccc3)nc12
(III) C[C@H](NC(=O)c1c[nH]c2ncc(-c3ccc(C(=O)N4CCC(C#N)CC4)s3)nc12)C(C)(C)C
input: Thanks in advance: please rank these 3 entries by IC50, highest to lowest. // rank by listing labels in the order requested
output: II, III, I
